Molecular target: 26S proteasome non-ATPase regulatory subunit 10 (Homo sapiens) (UniProt O75832)
Sequence (O75832 whole entry): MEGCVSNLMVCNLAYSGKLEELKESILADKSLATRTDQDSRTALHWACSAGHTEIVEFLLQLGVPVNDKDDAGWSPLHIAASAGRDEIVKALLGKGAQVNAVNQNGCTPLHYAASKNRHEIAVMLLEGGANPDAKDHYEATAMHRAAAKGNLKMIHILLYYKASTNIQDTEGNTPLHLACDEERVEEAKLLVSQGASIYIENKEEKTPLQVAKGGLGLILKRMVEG
Experiment: Binding affinity to gankyrin (unknown origin) assessed as fold increase in change in melting temperature at 300 uM by thermal shift assay relative to control
Activity calls are given as the source filed them. No cut-off for these calls is given here.
Allowed answers: active, inactive

Hello, I am checking results. What call was entered for COC(=O)c1ccc(-n2cc(CCCOS(=O)(=O)c3ccc(C)cc3)nn2)cc1 ? active

Hello, I am checking results. What call was entered for COC(=O)c1ccc(-n2cc(CCCOS(=O)(=O)c3ccccc3)nn2)cc1 ? inactive

Hello, I am checking results. What call was entered for COC(=O)c1ccc(-n2cc(CCCOS(=O)(=O)c3cccc(Cl)c3)nn2)cc1 ? inactive

Hello, I am checking results. What call was entered for CCc1cccc(S(=O)(=O)OCCCc2cn(-c3ccc(C(=O)OC)cc3)nn2)c1 ? inactive

Hello, I am checking results. What call was entered for COC(=O)c1ccc(-n2cc(CCCOS(=O)(=O)c3ccc(C(C)C)cc3)nn2)cc1 ? inactive
